assay: chemical genetic growth profiling, strain panel (AID 1159580);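 note: tested at 20 µM; growth read once vehicle control cultures reached saturation at 30 °C; 1 = growth at the plate median or of vehicle wells; lower values mean less growth of the strain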; conditions: S. cerevisiae deletion strains, growth OD, locus YHR013C, strain ard1
The campaign covered roughly 5,500 compounds. About 2,000 (36%) were called active. Not shown: some 18% with an inconclusive outcome. Cut-off read from the data, not from the text of the source: active = normalized growth mostly below about 0.91 (no sharp cut-off); inconclusive = no clear call, values can overlap the other calls; inactive = mostly above about 0.92. This is one part of the list.
// one of 1 for active, -1 for inactive, no free text

{"columns": ["Compound", "Class"],
 "data": [
  ["N#C/C(=C\\c1cccc(O)c1)C(=O)O", -1],
  ["CSc1ccc2c(c1)N(CCC1CCCCN1C)c1ccccc1S2 (configuration not stated)", -1],
  ["CCCCCC1C(=O)CCC1CC(=O)OC (configuration not stated)", -1],
  ["CCCCCC1C(=O)CCC1CC(=O)O (configuration not stated)", -1],
  ["CC(CN(C)C)CN1c2ccccc2CCc2ccccc21 (configuration not stated)", 1],
  ["CNCCCN1c2ccccc2CCc2ccccc21", -1]
]}

# input for lookup
Challenge: Outcome logged for NC(=O)c1ncn(C2O[C@H](CO)[C@@H](O)[C@H]2O)c1N (some centres not stated) in this assay:
Response given: -1
